Biological target: ETB receptor (Cavia porcellus)
Construct: Guinea pig cerebella were homogenized in a Potter-Elvejhem homogenizer; from tissue; host or cells: guinea pig cerebellum (membranes)
Sequence (H0VTF3 27-415): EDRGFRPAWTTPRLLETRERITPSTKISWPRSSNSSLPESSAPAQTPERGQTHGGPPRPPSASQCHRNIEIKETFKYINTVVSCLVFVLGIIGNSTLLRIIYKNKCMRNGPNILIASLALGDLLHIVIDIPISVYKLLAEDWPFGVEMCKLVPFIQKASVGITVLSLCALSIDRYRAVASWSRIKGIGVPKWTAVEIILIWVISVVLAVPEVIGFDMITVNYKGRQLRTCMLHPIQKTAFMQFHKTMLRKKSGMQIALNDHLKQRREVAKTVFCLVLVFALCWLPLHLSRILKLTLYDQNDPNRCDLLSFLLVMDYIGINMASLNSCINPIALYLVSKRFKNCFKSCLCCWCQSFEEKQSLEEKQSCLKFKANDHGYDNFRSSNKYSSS
Experiment: Receptor-binding studies, ETB receptor binding assay ([125I]-RZ3, guinea pig cerebellar membranes)
Procedure: Cloned human ETA receptor-expressing CHO cells and guinea pig cerebellar membranes with>60% ETB receptors compared with ETA receptors were used for binding studies. […] (ETB receptor assay) in the presence and absence of test substance. The non-specific binding was determined using 10^-7 M ET1. […] The radioactivity collected on the filters was quantified using a Packard 2200 CA liquid scintillation counter. The Ki values were determined by non-linear regression analysis using the LIGAND program.
Measure: Ki (µM)

COc1cc(OC)nc(OC(C(=O)O)C(C)(Oc2ccc(SC)cc2)c2ccccc2)n1 (stereo not shown) [Compound 4.58] = 4.7

Values from patent US5840722A
